Origin of the recorded values: PubChem BioAssay (NCI)

// reported TGI for each item listed
Test system: HOP-92 NSCLC
Assay: NCI tumour cell line growth inhibition, 48 h
Enter your answer as a number in µM; do not include the unit.

// below: answered molecules
INSERT INTO assay_data (smiles_structure, observed_value) VALUES
  ('COc1ccc(-c2cc(-c3ccccc3)nc(N)c2-c2ccc3ccccc3c2)cc1', 2.91),
  ('COc1ccc(NC(=O)CC(=O)n2nc(-c3ccccc3)c(N=Nc3ccccc3C(=O)O)c2-c2ccccc2)cc1', 41.4);

# context switch: different molecule, same TGI
Lookup: Tell me the measured TGI of CN(C)c1ccc2nc3ccc(=[N+](C)C)c([N+](=O)[O-])c-3sc2c1 , please.
Found: 11.3
